All figures here come from paper PMC8222333.

# Target of assay: d-enCas12a-Ultra (Acidaminococcus sp., UniProt U2UMQ6 1-1307, E174R;S542R;K548R;M537R;F870L;D908A;E993A;D1235A)
# Assay: Spec-seq (native PAGE EMSA with sequencing of bound and unbound); 25 mM Tris-HCl pH 7.4, 150 mM KCl, 5 mM MgCl2, 10% glycerol, 1 mM DTT, 40 ng/uL salmon sperm DNA; 400 nM Cas12a, 480 nM crRNA, 50 nM library, 37 C 1 h; native PAGE at room temperature; high values mean tight binding;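 further: relative affinity from the bound to unbound sequence frequency ratio in Spec-seq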
# Condition info: protein: recombinant
Endpoint: binding signal (lnKA)
Number only, in lnKA; omit the unit.

Task: Reported binding signal for CACT (dsDNA) DNA 1: GCTATCTAGTGCTCAGTACGCACTGCACTAGGAAACTTCTGGCAGGACCAGGTCATGAGATCGGAAGAGCACACGTCTGAACTCCAGTCA DNA 2: TGACTGGAGTTCAGACGTGTGCTCTTCCGATCTCATGACCTGGTCCTGCCAGAAGTTTCCTAGTGCAGTGCGTACTGAGCACTAGATAGC RNA: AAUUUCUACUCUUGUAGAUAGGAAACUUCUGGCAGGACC : what is it?
Output: -1.3

Task: Which binding signal reading was recorded for the binder GTTT (dsDNA) DNA 1: GCTATCTAGTGCTCAGTACGCACTGGTTTAGGAAACTTCTGGCAGGACCAGGTCATGAGATCGGAAGAGCACACGTCTGAACTCCAGTCA DNA 2: TGACTGGAGTTCAGACGTGTGCTCTTCCGATCTCATGACCTGGTCCTGCCAGAAGTTTCCTAAACCAGTGCGTACTGAGCACTAGATAGC RNA: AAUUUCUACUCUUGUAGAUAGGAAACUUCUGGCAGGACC ?
Output: -0.552

Task: Recorded binding signal of TTTT (dsDNA) DNA 1: GCTATCTAGTGCTCAGTACGCACTGTTTTAGGAAACTTCTGGCAGGACCAGGTCATGAGATCGGAAGAGCACACGTCTGAACTCCAGTCA DNA 2: TGACTGGAGTTCAGACGTGTGCTCTTCCGATCTCATGACCTGGTCCTGCCAGAAGTTTCCTAAAACAGTGCGTACTGAGCACTAGATAGC RNA: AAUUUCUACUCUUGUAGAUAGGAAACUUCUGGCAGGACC , please.
Output: -0.171
